Tested on: HTT
Experiment: RT-qPCR splicing assay, HTT AJ/CJ mRNA
Type: cell-based, human
Conditions: Homo sapiens, 24 h, decrease in canonical junction mRNA, A673 or K562 cells
Method: Compounds described herein were used to modulate RNA transcript abundance in cells. The expression of a target mRNA was measured by detecting the formation of an exon-exon junction in the canonical transcript (CJ). A compound mediated exon-inclusion event was detected by observing an increase in formation OF A new junction with an alternative exon (AJ). Real-time qPCR assays were used to detect these splicing switches and interrogate the potency of various compounds towards different target Genes. […]
Overview of reported IC50 across a group of compounds:

> print(dat)
                                   compound  measurement.label  value.measured
1  c1cnn(-c2ccc3c(c2)COc2nc(NC4CCNCC4)ccc2-3)c1               IC50         > 10 µM
2  CC1(C)CC(Nc2ccc3c(n2)CCOc2cc(-n4cccn4)ccc2-3)CC(C)(C)N1               IC50      1 to 10 µM
3  Fc1ccn(-c2ccc3c(c2)COc2nc(O[C@@H]4C[C@H]5CC[C@@H](C4)N5)ccc2-3)n1               IC50     0.1 to 1 µM

Supply measured IC50 of FC1(F)CC2CC(Nc3ccc4c(n3)OCc3cc(-c5cn[nH]c5)ccc3-4)CC1N2 (centres unmarked) in your reply.
1 to 10 µM

Supply measured IC50 of CN1CCCC2(CCN2c2ccc3c(n2)OCc2cc(-c4cn[nH]c4)ccc2-3)C1 (centres unmarked) in your reply.
> 10 µM

Supply measured IC50 of `c1cnn(-c2ccc3c(c2)COc2nc(N4C[C@H]5CNC[C@H]5C4)ccc2-3)c1` in your reply.
> 10 µM

Supply measured IC50 of `c1cc2c(cc1N[C@@H]1C[C@H]3CC[C@@H](C1)N3)CCOc1cc(-c3cn[nH]c3)ccc1-2` in your reply.
> 10 µM

Supply measured IC50 of `COc1cc(-c2ccc3c(c2)COc2nc(N4CCNCC4)ccc2-3)cnn1` in your reply.
0.1 to 1 µM

Supply measured IC50 of `c1cnn(-c2ccc3c(c2)COc2nc(OC4CCNCC4)ccc2-3)c1` in your reply.
1 to 10 µM

Supply measured IC50 of `CN(c1ccc2c(n1)OCc1cc(-c3cn[nH]c3)ccc1-2)[C@@H]1C[C@H]2CC[C@@H](C1)N2` in your reply.
< 0.1 µM

Supply measured IC50 of CC(C)(C)NC1CCN(c2ccc3c(n2)OCc2cc(-c4cnnc(OC5CC5)c4)ccc2-3)C1 (centres unmarked) in your reply.
1 to 10 µM

Supply measured IC50 of c1cnn(-c2ccc3c(c2)COc2nc(N4CCC(NC5CC5)C4)ccc2-3)c1 (centres unmarked) in your reply.
> 10 µM

Supply measured IC50 of `c1cnn(-c2ccc3c(c2)COc2nc(N4CCCC5(CNC5)C4)ccc2-3)c1` in your reply.
> 10 µM

Supply measured IC50 of c1cnn(-c2ccc3c(c2)COc2nc(N4CCCC5(CCNC5)C4)ccc2-3)c1 (centres unmarked) in your reply.
> 10 µM

====

Overview of reported AC50 across a group of compounds:
Test system: MYB
Experiment: RT-qPCR splicing assay, MYB AJ/CJ mRNA
Type: cell-based
Conditions: Homo sapiens, increase in alternative junction mRNA, A673 or K562 cells, 24 hours

> print(dat)
                                   compound  measurement.label  value.measured
1  CC1(C)CC(Oc2ccc3c(n2)OCc2cc(-c4cn[nH]c4)c(F)cc2-3)CC(C)(C)N1               AC50     0.1 to 1 µM
2  CN(c1ccc2c(n1)OCc1cc(-n3cc(N)cn3)ccc1-2)[C@@H]1C[C@H]2CC[C@@H](C1)N2               AC50     0.1 to 1 µM
3  [2H]C([2H])([2H])N(c1ccc2c(n1)OCc1cc(-n3cccn3)ccc1-2)C1C[C@H]2CCC[C@@H](C1)N2 (stereo partly drawn)               AC50     0.1 to 1 µM

Supply measured AC50 of `[2H]C([2H])([2H])N(c1ccc2c(n1)OCc1cc(-n3cccn3)ccc1-2)C1CCNCC1` in your reply.
> 10 µM

Supply measured AC50 of `COc1cc(-c2cc3c(cc2F)-c2ccc(OC4CC(C)(C)NC(C)(C)C4)nc2OC3)cnn1` in your reply.
0.1 to 1 µM

Supply measured AC50 of `CN(c1ccc2c(n1)OCc1cc(-c3ccn(C)c(=O)c3)ccc1-2)[C@@H]1C[C@H]2CC[C@@H](C1)N2` in your reply.
< 0.1 µM

Supply measured AC50 of `CCN(c1ccc2c(n1)OCc1cc(-n3cccn3)ccc1-2)[C@@H]1C[C@H]2CC[C@@H](C1)N2` in your reply.
> 10 µM

Supply measured AC50 of CC(C)Oc1cc(-c2ccc3c(c2)COc2nc(N4CCC(NC(C)(C)C)C4)ccc2-3)cnn1 (stereo not drawn) in your reply.
> 10 µM

Supply measured AC50 of FC1(F)CC2CC(Nc3ccc4c(n3)OCc3cc(-n5nccn5)ccc3-4)CC1N2 (stereo not drawn) in your reply.
1 to 10 µM

Supply measured AC50 of COc1cnnc(-c2ccc3c(c2)COc2nc(N4CCC(NC(C)(C)C)C4)ccc2-3)c1 (stereo not drawn) in your reply.
> 10 µM

Supply measured AC50 of COc1cc(-c2ccc3c(c2)COc2nc(NC4CC5CC(F)(F)C(C4)N5)ccc2-3)cnn1 (stereo not drawn) in your reply.
1 to 10 µM

Supply measured AC50 of `Cc1ncc(-c2ccc3c(c2)COc2nc(N(C)[C@@H]4C[C@H]5CC[C@@H](C4)N5)ccc2-3)o1` in your reply.
0.1 to 1 µM

====

System: HTT
Experiment: RT-qPCR splicing assay, HTT AJ/CJ mRNA
Assay type: cell-based, human
Conditions: Homo sapiens, 24 h, decrease in canonical junction mRNA, A673 or K562 cells
Method: Compounds described herein were used to modulate RNA transcript abundance in cells. The expression of a target mRNA was measured by detecting the formation of an exon-exon junction in the canonical transcript (CJ). A compound mediated exon-inclusion event was detected by observing an increase in formation OF A new junction with an alternative exon (AJ). Real-time qPCR assays were used to detect these splicing switches and interrogate the potency of various compounds towards different target Genes. […]
pIC50: −log10 of the molar value.
Overview of reported pIC50 across a group of molecules:

> print(dat)
                                   molecule  value.measured
1  CCN(C)C1CCN(c2ccc3c(n2)OCc2cc(-c4cnnc(OC)c4)ccc2-3)C1 (stereo not shown)    6.00 to 7.00
2  Cc1cn(-c2ccc3c(c2)COc2nc(N(C)[C@@H]4C[C@H]5CC[C@@H](C4)N5)ccc2-3)cn1          > 7.00
3  CN(c1ccc2c(n1)OCc1cc(-c3ccc(=O)[nH]c3)ccc1-2)[C@@H]1C[C@H]2CC[C@@H](C1)N2    5.00 to 6.00

Supply measured pIC50 of `c1cnn(-c2ccc3c(c2)OCCc2nc(N[C@@H]4C[C@H]5CC[C@@H](C4)N5)ccc2-3)c1` in your reply.
< 5.00

Supply measured pIC50 of `CN(c1ncc2c(n1)OCc1cc(-c3cn[nH]c3)ccc1-2)[C@@H]1C[C@H]2CC[C@@H](C1)N2` in your reply.
> 7.00

Supply measured pIC50 of `COc1cc(-c2ccc3c(c2)COc2nc(N4CCN[C@@H](C)C4)ccc2-3)cnn1` in your reply.
6.00 to 7.00

Supply measured pIC50 of `CN1CCC2(CC1)CCN2c1ccc2c(n1)OCc1cc(-c3cn[nH]c3)ccc1-2` in your reply.
< 5.00

Supply measured pIC50 of `[2H]C([2H])([2H])N(c1ccc2c(n1)OCc1cc(-n3cccn3)ccc1-2)C1CC(C)(C)NC(C)(C)C1` in your reply.
5.00 to 6.00

Supply measured pIC50 of c1cc2c(cc1-c1cn[nH]c1)COc1nc(N3CCC4(CCN4)C3)ccc1-2 (stereo not shown) in your reply.
6.00 to 7.00

Supply measured pIC50 of `CN(c1ccc2c(n1)OCc1cc(-n3cccn3)ccc1-2)[C@H]1[C@@H]2CNC[C@@H]21` in your reply.
5.00 to 6.00

Supply measured pIC50 of `COc1cc(-c2cc(F)c3c(c2)COc2nc(N(C)[C@@H]4C[C@H]5CC[C@@H](C4)N5)ccc2-3)cnn1` in your reply.
> 7.00

Supply measured pIC50 of CC(C)(C)NC1CCN(c2ccc3c(n2)OCc2cc(-n4nccn4)ccc2-3)C1 (stereo not shown) [Compound 250, 2,2,2-trifluoroacetate] in your reply.
5.00 to 6.00

Supply measured pIC50 of `c1cnn(-c2ccc3c(c2)COc2nc(S[C@@H]4C[C@H]5CC[C@@H](C4)N5)ccc2-3)c1` in your reply.
< 5.00
